System: MDA-MB-231 breast
experiment_description: NCI tumour cell line growth inhibition, 48 h
Assign criterion met to entries whose TGI meets or exceeds 6 µM; assign criterion not met to the rest.

>>> discrete_label("COc1ccc(C2CC(c3cccc(Nc4ccnc5cc(Cl)ccc45)c3)=NN2C=O)cc1 (stereo unspecified)")
"criterion met"
>>> discrete_label("CCOC(=O)C1Cc2c(cc3c4c(cccc24)N(C(C)=O)C3)N(C)C1 (stereo unspecified)")
"criterion not met"
>>> discrete_label("C=CCN(c1cc(OCc2ccccc2)c2[nH]cc(C)c2c1)S(C)(=O)=O")
"criterion met"
>>> discrete_label("O=C1/C(=C\\Oc2ccc(F)cc2)N2CCC1CC2")
"criterion met"
>>> discrete_label("Cc1nc(N)c(N2CCN(C(=O)O)CC2)c(=O)[nH]1")
"criterion met"
>>> discrete_label("CC(C)(C)OC(=O)NC(CCCCNC(=O)OCc1ccccc1)C(=O)NCCNc1ccc(NCCNC(=O)C(CCCCNC(=O)OCc2ccccc2)NC(=O)OC(C)(C)C)c2c1C(=O)c1ccccc1C2=O (stereo unspecified)")
"criterion met"
>>> discrete_label("OCCN1CCN(CCCN2c3ccccc3Sc3ccc(Cl)cc32)CC1")
"criterion not met"
>>> discrete_label("CC(C)C1C(=O)N(c2c(F)c(F)c(F)c(F)c2F)C(=S)N1CCS(=O)c1ccccc1 (stereo unspecified)")
"criterion met"
>>> discrete_label("COC(=O)/C(C#N)=C(\\Nc1ccccc1)N1CCOCC1")
"criterion met"
>>> discrete_label("C=C1C(=O)O[C@H]2C/C(C)=C/CC[C@@]3(C)O[C@](C)(CC[C@@H]3I)[C@@H](I)C[C@@H]12")
"criterion met"
>>> discrete_label("C[N+]1(CCC(=O)c2ccco2)CC2CCC(CC2)C1 (stereo unspecified)")
"criterion met"
